# credit: patent EP4596580A1

Would you kindly list koff for each of these binders?
Molecular target: T1, His-human LIGHT (human)
T1 construct: also called His-huLIGHT; free LIGHT
T1 chain: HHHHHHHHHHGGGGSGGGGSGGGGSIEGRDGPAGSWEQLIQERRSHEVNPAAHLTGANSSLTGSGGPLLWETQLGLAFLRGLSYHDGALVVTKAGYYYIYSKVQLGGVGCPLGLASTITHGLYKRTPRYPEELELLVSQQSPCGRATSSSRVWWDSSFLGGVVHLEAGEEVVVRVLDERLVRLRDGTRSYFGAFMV
Test: SPR, Biacore 8K, antibody on CM5 chip
One number for each entry, in s⁻¹.

binder	koff / s⁻¹
LT-m64 (antibody, human IgG4, V domains shown) VH: EVKLEESGAELVKPGASVRLSCKTSGYTFTNYYVYWVKQRPGQGLEWIGEINPTNGDPNFNEKFKSKATLTVDKSSSTAYMHLSSLTSEDSAVYYCTRSNWDYGNAMDFWGQGTSVTVSS VL: DIVMTQSPASLAVSLGQRATISCKASQSVDFDGDGYMNWYQQKPGQPPKLLIYKASHLDSGIPARFSASGSGTDFTLNIHPVEEEDAATYYCQQSIEDPFTFGSGTKLEIK	5.61e-05

Look up koff for the entries below, preserving their order.
1. LT-m31 (antibody, human IgG4, V domains shown) VH: QIQLLQSGPELEKPGETVKISCKASGYTFTNYGMNWVKQAPGKGLKWMGWINTYTGEPTYADDFKGRFAFSLETSASTAYLQINNLKNEDTATYFCARDNWDGKGMDYWGQGTSVTVSS VL: DIVLTQSPKFMSTSVGDRVSITCKASQDVDTAVAWYQQKPGHSPKLLLYWASTRHTGVPDRFTGSGSGTDFTLTISNVQSEDLADYFCHQYGSYPLTFGAGTKLELK
2. LT-m58 (antibody, human IgG4, V domains shown) VH: QVQLQQSGAEMASPGASVTLSCKASGYTFIDHIMNWVKKRPGQGLEWIGRIYPVSGETNYNQKFMGKATFSVDRSSSTVYMVLNSLTSEDPAVYYCGRGSYYWNAMDYWGQGTTLTVSS VL: DIVMTQSPASLAVSLGQRATISCKASQSVDFDGDSYMNWYQQKPGQPPKLLIYSASNLESGIPARFSGSGSGTDFTLNIHPVEEEDAATYYCQQSIEDPWTFGGGTKLEIK

["4.03e-05", "2.67e-05"]

For every item below, please supply its koff.
1. LT-m55 (antibody, human IgG4, V domains shown) VH: EVQLQQSGAELVKPGASVKLSCKASGYTFATYYMYWVKQRPGQGLEWIGEINPTNGGTIFNEKFKTKATLTVDKSSSTAYMQLSSLTSEDSAVYYCARGNWPYWSFDVWGAGTSVTVSS VL: DIVLTQSPASLAVSLGQRATISCKASQSVDFDGDNYMNWYQQKPGQPPKLLIYAASNLDSGIPARFSASGSGTDFTLNIHPVEEEDAATYYCQQSIEDPWTFGGGTKLEIK
2. LT-m33 (antibody, human IgG4, V domains shown) VH: QVQLKQSGAELVKPGASVRLSCKTSGYTFTNYYVYWVKQRPGQGLEWIGEINPTNGDPNFNEKFKSKATLTVDKSSSTAYMHLSSLTSEDSAVYYCTRSNWDYGNAMDFWGQGTSVTVSS VL: DIVMTQSPASLAVSLGQRATISCKASQSVDFDGDGYMNWYQQKPGQPPKLLIYKASHLDSGIPARFSGSGSGTDFTLNIHPVEEEDAATYYCQQSIEDPLTFGDGTRLEIK
3. LT-m85 (antibody, human IgG4, V domains shown) VH: EVQLQQSGAELVKPGASVKMSCKASGYTFTSYNVHWVKQTPGQGLEWIGAVYPGNGDTSYNQKFKGKATLTADKSSNTAYMQLSSLTSEDSAVYYCARGSYYYTSSYFDHWGQGTTLTVSS VL: DIVLTQSPASLAVSLGQRATISCKASQSVDFDGDSYMNWYQQKPGQPPKLLIYTASNLESGIPARFTGSGSGTDFTLNIHPVEEEDAATYYCQQSYEDPFTFGSGTKLEIK

1: 6.01e-05; 2: 4.07e-05; 3: 5.28e-05
